viability, T/C listing for selected molecules.
Test system: OVCAR-5 complex spheroids with HUVEC/MSC, viability, % test/control
assay name: Anticancer human tumor OVCAR-5 cell line growth inhibition [AhR];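 also: spheroids exposed to compounds for 7 days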;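 as to viability, T/C: 100% = DMSO vehicle control wells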
setup conditions: second compound 0.316 µM; first compound 0.316 µM; stronger effect = lower value

# molecule, unit of measure, viability, T/C
measured = [
    ("COc1cc(Nc2ncc3c(n2)-c2ccc(Cl)cc2C(c2c(F)cccc2OC)=NC3)ccc1C(=O)O + Cc1cncc(-c2nc(NCCc3c[nH]c4ccccc34)c3ncn(C(C)C)c3n2)c1", "%", 63.3),
    ("Nc1ccn(C2OC(CO)C(O)C2(F)F)c(=O)n1 (centres undefined) + CC(CO)NC(=O)c1cc(-c2ccc(Cl)cc2)nn(-c2cnn(C)c2)c1=O", "%", 28.9),
    ("CC(C)c1c(-c2ccccc2)nc2c(C#N)c[nH]n2c1=O + Cc1ccccc1N=Nc1ccc(NC(=O)c2ccnn2C)c(C)c1", "%", 106),
    ("NS(=O)(=O)OCC1CC(n2ccc3c(NC4CCc5ccccc54)ncnc32)CC1O (centres undefined) + Cc1cncc(-c2nc(NCCc3c[nH]c4ccccc34)c3ncn(C(C)C)c3n2)c1", "%", 33),
    ("Nc1ccccc1NC(=O)c1ccc(CNC(=O)OCc2cccnc2)cc1 + CC(CO)NC(=O)c1cc(-c2ccc(Cl)cc2)nn(-c2cnn(C)c2)c1=O", "%", 63.2),
    ("O=C(c1cc(Cc2n[nH]c(=O)c3ccccc23)ccc1F)N1CCN(C(=O)C2CC2)CC1 + CC(CO)NC(=O)c1cc(-c2ccc(Cl)cc2)nn(-c2cnn(C)c2)c1=O", "%", 108),
    ("COc1cccc2c1C(=O)c1c(O)c3c(c(O)c1C2=O)CC(O)(C(=O)CO)CC3OC1CC(N)C(O)C(C)O1 (centres undefined) + CC(CO)NC(=O)c1cc(-c2ccc(Cl)cc2)nn(-c2cnn(C)c2)c1=O", "%", 50.9),
    ("CC1COCCN1c1cc(C2(S(C)(=N)=O)CC2)nc(-c2ccnc3[nH]ccc23)n1 (centres undefined) + Cc1cncc(-c2nc(NCCc3c[nH]c4ccccc34)c3ncn(C(C)C)c3n2)c1", "%", 99.3),
    ("O=C(C=Cc1cccc(S(=O)(=O)Nc2ccccc2)c1)NO + CC(CO)NC(=O)c1cc(-c2ccc(Cl)cc2)nn(-c2cnn(C)c2)c1=O", "%", 76.4),
    ("CC1COCCN1c1cc(C2(S(C)(=N)=O)CC2)nc(-c2ccnc3[nH]ccc23)n1 (centres undefined) + CC(CO)NC(=O)c1cc(-c2ccc(Cl)cc2)nn(-c2cnn(C)c2)c1=O", "%", 107),
    ("O=C(c1cc(Cc2n[nH]c(=O)c3ccccc23)ccc1F)N1CCN(C(=O)C2CC2)CC1 + Cc1ccccc1N=Nc1ccc(NC(=O)c2ccnn2C)c(C)c1", "%", 105),
    ("COc1cccc2c1C(=O)c1c(O)c3c(c(O)c1C2=O)CC(O)(C(=O)CO)CC3OC1CC(N)C(O)C(C)O1 (centres undefined) + Cc1cncc(-c2nc(NCCc3c[nH]c4ccccc34)c3ncn(C(C)C)c3n2)c1", "%", 47.3),
    ("O=C(c1cc(Cc2n[nH]c(=O)c3ccccc23)ccc1F)N1CCN(C(=O)C2CC2)CC1 + Cc1cncc(-c2nc(NCCc3c[nH]c4ccccc34)c3ncn(C(C)C)c3n2)c1", "%", 95.4),
    ("NS(=O)(=O)OCC1CC(n2ccc3c(NC4CCc5ccccc54)ncnc32)CC1O (centres undefined) + Cc1ccccc1N=Nc1ccc(NC(=O)c2ccnn2C)c(C)c1", "%", 37.8),
    ("Nc1ncn(C2CC(O)C(CO)O2)c(=O)n1 (centres undefined) + Cc1ccccc1N=Nc1ccc(NC(=O)c2ccnn2C)c(C)c1", "%", 69.3),
    ("Nc1ccn(C2OC(CO)C(O)C2(F)F)c(=O)n1 (centres undefined) + Cc1cncc(-c2nc(NCCc3c[nH]c4ccccc34)c3ncn(C(C)C)c3n2)c1", "%", 32),
    ("CC1COCCN1c1cc(-c2ccnn2C)c2ccnc(-c3ccn[nH]3)c2n1 (centres undefined) + CC(CO)NC(=O)c1cc(-c2ccc(Cl)cc2)nn(-c2cnn(C)c2)c1=O", "%", 45.1),
    ("Nc1ncn(C2CC(O)C(CO)O2)c(=O)n1 (centres undefined) + CC(CO)NC(=O)c1cc(-c2ccc(Cl)cc2)nn(-c2cnn(C)c2)c1=O", "%", 70.8),
    ("O=C(C=Cc1cccc(S(=O)(=O)Nc2ccccc2)c1)NO + Cc1cncc(-c2nc(NCCc3c[nH]c4ccccc34)c3ncn(C(C)C)c3n2)c1", "%", 70.2),
    ("COc1cccc2c1C(=O)c1c(O)c3c(c(O)c1C2=O)CC(O)(C(=O)CO)CC3OC1CC(N)C(O)C(C)O1 (centres undefined) + Cc1ccccc1N=Nc1ccc(NC(=O)c2ccnn2C)c(C)c1", "%", 43.6),
    ("COc1cc(C2c3cc4c(cc3C(OC3OC5COC(C)OC5C(O)C3O)C3COC(=O)C23)OCO4)cc(OC)c1O (centres undefined) + Cc1ccccc1N=Nc1ccc(NC(=O)c2ccnn2C)c(C)c1", "%", 103),
    ("CC(C)c1c(-c2ccccc2)nc2c(C#N)c[nH]n2c1=O + CC(CO)NC(=O)c1cc(-c2ccc(Cl)cc2)nn(-c2cnn(C)c2)c1=O", "%", 114),
    ("COc1cc(C2c3cc4c(cc3C(OC3OC5COC(C)OC5C(O)C3O)C3COC(=O)C23)OCO4)cc(OC)c1O (centres undefined) + Cc1cncc(-c2nc(NCCc3c[nH]c4ccccc34)c3ncn(C(C)C)c3n2)c1", "%", 86),
    ("COc1ccc([C@@H](O)c2cc(-c3ncnc4cc(N5CCOCC5)ccc34)c(F)cc2Cl)nn1 + Cc1cncc(-c2nc(NCCc3c[nH]c4ccccc34)c3ncn(C(C)C)c3n2)c1", "%", 94),
]

---

System: OVCAR-5 complex spheroids with HUVEC/MSC, viability, % test/control
assay name: Anticancer human tumor OVCAR-5 cell line growth inhibition [AhR];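 also: spheroids exposed to compounds for 7 days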
setup conditions: curve of first compound; second compound 0.316 µM
pIC50: −log10 of the molar value.
measured endpoint: pIC50

# molecule, result
records = [
    ("CC(C)c1c(-c2ccccc2)nc2c(C#N)c[nH]n2c1=O + CC(CO)NC(=O)c1cc(-c2ccc(Cl)cc2)nn(-c2cnn(C)c2)c1=O", "< 5.00"),
    ("O=C(C=Cc1cccc(S(=O)(=O)Nc2ccccc2)c1)NO + Cc1ccccc1N=Nc1ccc(NC(=O)c2ccnn2C)c(C)c1", 5.97),
    ("Nc1ccn(C2OC(CO)C(O)C2(F)F)c(=O)n1 (centres undefined) + CC(CO)NC(=O)c1cc(-c2ccc(Cl)cc2)nn(-c2cnn(C)c2)c1=O", "> 7.50"),
    ("Nc1ccn(C2OC(CO)C(O)C2(F)F)c(=O)n1 (centres undefined) + Cc1cncc(-c2nc(NCCc3c[nH]c4ccccc34)c3ncn(C(C)C)c3n2)c1", "> 7.50"),
]

---

Measured viability, T/C, listed per entry for reference.
System: OVCAR-5 complex spheroids with HUVEC/MSC, viability, % test/control
assay name: Anticancer human tumor OVCAR-5 cell line growth inhibition [AhR];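 also: spheroids exposed to compounds for 7 days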;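 as to viability, T/C: 100% = DMSO vehicle control wells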
setup conditions: second compound 0.316 µM; first compound 1 µM; stronger effect = lower value

# compound, viability, T/C (%)
measured = [
    ("O=C(c1cc(Cc2n[nH]c(=O)c3ccccc23)ccc1F)N1CCN(C(=O)C2CC2)CC1 + Cc1cncc(-c2nc(NCCc3c[nH]c4ccccc34)c3ncn(C(C)C)c3n2)c1", 89.9),
    ("Nc1ncn(C2CC(O)C(CO)O2)c(=O)n1 (configuration not stated) + Cc1ccccc1N=Nc1ccc(NC(=O)c2ccnn2C)c(C)c1", 59.2),
    ("Nc1ccn(C2OC(CO)C(O)C2(F)F)c(=O)n1 (configuration not stated) + CC(CO)NC(=O)c1cc(-c2ccc(Cl)cc2)nn(-c2cnn(C)c2)c1=O", 28.5),
    ("COc1cccc2c1C(=O)c1c(O)c3c(c(O)c1C2=O)CC(O)(C(=O)CO)CC3OC1CC(N)C(O)C(C)O1 (configuration not stated) + Cc1cncc(-c2nc(NCCc3c[nH]c4ccccc34)c3ncn(C(C)C)c3n2)c1", 26.9),
    ("O=C(c1cc(Cc2n[nH]c(=O)c3ccccc23)ccc1F)N1CCN(C(=O)C2CC2)CC1 + Cc1ccccc1N=Nc1ccc(NC(=O)c2ccnn2C)c(C)c1", 104),
    ("NS(=O)(=O)OCC1CC(n2ccc3c(NC4CCc5ccccc54)ncnc32)CC1O (configuration not stated) + CC(CO)NC(=O)c1cc(-c2ccc(Cl)cc2)nn(-c2cnn(C)c2)c1=O", 14.8),
    ("Nc1ccccc1NC(=O)c1ccc(CNC(=O)OCc2cccnc2)cc1 + Cc1ccccc1N=Nc1ccc(NC(=O)c2ccnn2C)c(C)c1", 44.4),
    ("O=C(c1cc(Cc2n[nH]c(=O)c3ccccc23)ccc1F)N1CCN(C(=O)C2CC2)CC1 + CC(CO)NC(=O)c1cc(-c2ccc(Cl)cc2)nn(-c2cnn(C)c2)c1=O", 107),
    ("COc1cc(C2c3cc4c(cc3C(OC3OC5COC(C)OC5C(O)C3O)C3COC(=O)C23)OCO4)cc(OC)c1O (configuration not stated) + CC(CO)NC(=O)c1cc(-c2ccc(Cl)cc2)nn(-c2cnn(C)c2)c1=O", 86),
    ("NS(=O)(=O)OCC1CC(n2ccc3c(NC4CCc5ccccc54)ncnc32)CC1O (configuration not stated) + Cc1cncc(-c2nc(NCCc3c[nH]c4ccccc34)c3ncn(C(C)C)c3n2)c1", 16.5),
    ("NS(=O)(=O)OCC1CC(n2ccc3c(NC4CCc5ccccc54)ncnc32)CC1O (configuration not stated) + Cc1ccccc1N=Nc1ccc(NC(=O)c2ccnn2C)c(C)c1", 14.3),
    ("CC1COCCN1c1cc(C2(S(C)(=N)=O)CC2)nc(-c2ccnc3[nH]ccc23)n1 (configuration not stated) + Cc1ccccc1N=Nc1ccc(NC(=O)c2ccnn2C)c(C)c1", 100),
]
